B1: OR4K15 (parent)
chain: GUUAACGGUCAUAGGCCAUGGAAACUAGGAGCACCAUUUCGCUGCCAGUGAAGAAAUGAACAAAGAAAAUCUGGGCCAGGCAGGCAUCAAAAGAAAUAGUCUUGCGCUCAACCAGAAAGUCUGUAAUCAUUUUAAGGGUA

Variants of: B1
Test: self-cleavage, relative activity (ratio to wild type); higher = more cleavage; in vitro, sequencing; the parent is a self-cleaving ribozyme
Tag: True if measured self-cleavage is not below 0.8, False if it is.

Query block: Has A56G U100C a recorded self-cleavage greater than or equal to 0.8?
Result block: True

Query block: Has A4G A95C a recorded self-cleavage greater than or equal to 0.8?
Result block: True

Query block: Has A30U A36U a recorded self-cleavage greater than or equal to 0.8?
Result block: True

Query block: Has A78C A82G a recorded self-cleavage greater than or equal to 0.8?
Result block: False

Query block: Has A64U A91G a recorded self-cleavage greater than or equal to 0.8?
Result block: True

Query block: Has U39A U127C a recorded self-cleavage greater than or equal to 0.8?
Result block: False

Query block: Has A67G U120G a recorded self-cleavage greater than or equal to 0.8?
Result block: True

Query block: Has A18U U72C a recorded self-cleavage greater than or equal to 0.8?
Result block: False

Query block: Has U49C A64G a recorded self-cleavage greater than or equal to 0.8?
Result block: True

Query block: Has G14A A54U a recorded self-cleavage greater than or equal to 0.8?
Result block: True

Query block: Has A18U U108C a recorded self-cleavage greater than or equal to 0.8?
Result block: False

Query block: Has U37C A110C a recorded self-cleavage greater than or equal to 0.8?
Result block: False

Query block: Has A13U A64G a recorded self-cleavage greater than or equal to 0.8?
Result block: True

Query block: Has A36G U132C a recorded self-cleavage greater than or equal to 0.8?
Result block: True

Query block: Has A4G A60U a recorded self-cleavage greater than or equal to 0.8?
Result block: True

Query block: Has A33G U122A a recorded self-cleavage greater than or equal to 0.8?
Result block: False

Query block: Has A18G U124G a recorded self-cleavage greater than or equal to 0.8?
Result block: True

Query block: Has C109U A125G a recorded self-cleavage greater than or equal to 0.8?
Result block: False

Query block: Has A33U A126U a recorded self-cleavage greater than or equal to 0.8?
Result block: True

Query block: Has U72G C101A a recorded self-cleavage greater than or equal to 0.8?
Result block: False

Query block: Has A111G A117C a recorded self-cleavage greater than or equal to 0.8?
Result block: False

Query block: Has A68G U130C a recorded self-cleavage greater than or equal to 0.8?
Result block: True

Query block: Has A27C G75C a recorded self-cleavage greater than or equal to 0.8?
Result block: False

Query block: Has U38C C77U a recorded self-cleavage greater than or equal to 0.8?
Result block: True

Query block: Has A52G A56G a recorded self-cleavage greater than or equal to 0.8?
Result block: False

Query block: Has U97A U108C a recorded self-cleavage greater than or equal to 0.8?
Result block: False

Query block: Has A118G U133C a recorded self-cleavage greater than or equal to 0.8?
Result block: True

Query block: Has U122G a recorded self-cleavage greater than or equal to 0.8?
Result block: True

Query block: Has C25U A91U a recorded self-cleavage greater than or equal to 0.8?
Result block: True

Query block: Has C76A A96G a recorded self-cleavage greater than or equal to 0.8?
Result block: False

Query block: Has G74U A116U a recorded self-cleavage greater than or equal to 0.8?
Result block: False

Query block: Has G28U A68G a recorded self-cleavage greater than or equal to 0.8?
Result block: True

Query block: Has C105U U108C a recorded self-cleavage greater than or equal to 0.8?
Result block: False

Query block: Has U2C U9A a recorded self-cleavage greater than or equal to 0.8?
Result block: False

Query block: Has U9C A22G a recorded self-cleavage greater than or equal to 0.8?
Result block: True

Query block: Has C77A a recorded self-cleavage greater than or equal to 0.8?
Result block: False

Query block: Has A54G G136U a recorded self-cleavage greater than or equal to 0.8?
Result block: True

Query block: Has U2G A135U a recorded self-cleavage greater than or equal to 0.8?
Result block: True

Query block: Has U127C A129C a recorded self-cleavage greater than or equal to 0.8?
Result block: False

Query block: Has A36U A91C a recorded self-cleavage greater than or equal to 0.8?
Result block: True

Query block: Has A67G A98U a recorded self-cleavage greater than or equal to 0.8?
Result block: True

Query block: Has A5G A140U a recorded self-cleavage greater than or equal to 0.8?
Result block: True

Query block: Has A64U A78G a recorded self-cleavage greater than or equal to 0.8?
Result block: False

Query block: Has A30G a recorded self-cleavage greater than or equal to 0.8?
Result block: True
